- subject of test: Cannabinoid receptor 2 (Homo sapiens, UniProt P34972, V36M)
- Sequence (P34972 whole entry V36M): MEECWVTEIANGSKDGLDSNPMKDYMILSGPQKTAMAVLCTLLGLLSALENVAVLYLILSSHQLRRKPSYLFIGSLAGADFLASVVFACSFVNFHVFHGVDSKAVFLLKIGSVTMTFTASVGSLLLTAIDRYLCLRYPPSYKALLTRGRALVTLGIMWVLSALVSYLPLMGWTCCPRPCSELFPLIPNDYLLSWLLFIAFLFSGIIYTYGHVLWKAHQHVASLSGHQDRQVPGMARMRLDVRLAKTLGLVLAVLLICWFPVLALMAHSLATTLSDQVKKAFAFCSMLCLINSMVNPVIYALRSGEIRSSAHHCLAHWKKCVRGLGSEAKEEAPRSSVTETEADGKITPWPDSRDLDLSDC
- procedure details: Partial agonist activity at CBR2 V361.35M mutant (unknown origin) stably expressed in HEK293T assessed as decrease in forskolin induced cAMP level preincubated for 15 mins followed by forskolin addition incubated for 15 mins by HTRF assay
- Format: functional, cell-based
pEC50: −log10 of the molar value.
measurement label: pEC50

• CCCC(C)(C)c1cc(O)c2c(c1)OC(C)(C)[C@@H]1CC=C(C)C[C@@H]21 = 7.90

----------
- subject of test: Cannabinoid receptor 2 (Homo sapiens)
- procedure details: Partial agonist activity at wild type CB2 receptor (unknown origin) expressed in HEK293T assessed as increase in picometer shifts of reflected light wavelengths by DMR assay
- Type: functional, cell-based
pEC50: −log10 of the molar value.
measurement label: pEC50

• CCCC(C)(C)c1cc(O)c2c(c1)OC(C)(C)[C@@H]1CC=C(C)C[C@@H]21 = 6.20

----------
Parameter: Emax. Scope: all listed entries.
- subject of test: Cannabinoid receptor 2 (Homo sapiens)
- procedure details: Positive allosteric modulation of JWH-133-induced agonist activity at wild type CB2 receptor (unknown origin) stably expressed in HEK293T cells assessed as inhibition of forskolin-stimulated cAMP levels preincubated for 15 mins followed by forskolin addition incubated for 15 mins by HTRF assay relative to control
- Format: functional, cell-based
- condition parameters: filed as positive allosteric modulator, time 30.0 min
measurement label: Emax (%)

• C=C(C)[C@@H]1CCC(C)=C[C@H]1c1c(O)cc(CCCC)cc1O = 64.1
• C=C(C)[C@@H]1CCC(C)=C[C@H]1c1c(O)cc(CCCCCC)cc1O = 83.5
• C=C(C)[C@@H]1CCC(C)=C[C@H]1c1c(O)cc(CCC)cc1O = 48
• C=C(C)[C@@H]1CCC(C)=C[C@H]1c1c(O)cc(CC)cc1O = 45.3
• C=C(C)[C@@H]1CCC(C)=C[C@H]1c1c(O)cc(CCCCC)cc1O = 67.8
• CCCC(C)(C)c1cc(O)c2c(c1)OC(C)(C)[C@@H]1CC=C(C)C[C@@H]21 = 56

----------
- subject of test: Cannabinoid receptor 2 (Homo sapiens, UniProt P34972, V113M)
- Sequence (P34972 whole entry V113M): as the sequence (P34972 whole entry V36M) above, with M36V, V113M counted along it
- procedure details: Partial agonist activity at CBR2 V1133.32M mutant (unknown origin) stably expressed in HEK293T assessed as decrease in forskolin induced cAMP level preincubated for 15 mins followed by forskolin addition incubated for 15 mins in presence of cannabidiol by HTRF assay
- Type: functional, cell-based
measurement label: EC50

- CCCC(C)(C)c1cc(O)c2c(c1)OC(C)(C)[C@@H]1CC=C(C)C[C@@H]21: 25.1 nM

----------
- subject of test: Cannabinoid receptor 2 (Homo sapiens)
- procedure details: Positive allosteric modulation of JWH-133-induced agonist activity at wild type CB2 receptor (unknown origin) stably expressed in HEK293T cells assessed as inhibition of forskolin-stimulated cAMP levels preincubated for 15 mins followed by forskolin addition incubated for 15 mins by HTRF assay
- Type: functional, cell-based
Label key: satisfied means EC50 under 30 nM; not satisfied means EC50 of 30 nM or more.

- CCCC(C)(C)c1cc(O)c2c(c1)OC(C)(C)[C@@H]1CC=C(C)C[C@@H]21: satisfied
- C=C(C)[C@@H]1CCC(C)=C[C@H]1c1c(O)cc(CCC)cc1O [CANNABIDIVARIN]: satisfied
- C=C(C)[C@@H]1CCC(C)=C[C@H]1c1c(O)cc(CCCCCC)cc1O: not satisfied
- C=C(C)[C@@H]1CCC(C)=C[C@H]1c1c(O)cc(CC)cc1O: not satisfied
- C=C(C)[C@@H]1CCC(C)=C[C@H]1c1c(O)cc(CCCC)cc1O: not satisfied
